# ASSAY OVERVIEW: Quantitative highthroughput screen to assess conditional lethalithy of P12 Ichikawa cells grown in RPMI1640 with untreated serum (RPMI+s) (AID 1963881); further: nearly all actives have a fitted effect of over 35% in size
# REPORTED CONDITIONS: ATP luminescence, 48 h; viability; series mostly up to 45.8 µM
Records with an inconclusive call do not appear. Active and inactive are the calls of the source. The call rests on the fitted dose curve; in most records, active means well fitted cell-killing curve with a large enough effect; inconclusive means small, poorly fitted or top-dose-only effect; inactive means flat fitted curve, though single readings scatter.
Classes used: y = active, n = inactive

INSERT INTO assay_data (compound, classification) VALUES
  ('O=C(NC(Cc1cc(=O)[nH]c2ccccc12)C(=O)O)c1ccc(Cl)cc1 (centres undefined)', 'n'),
  ('CCC(C=C[C@@H]1OC(=O)C=C[C@H]1C)=C[C@H](C)CC=CC(C)=C[C@@H](C)C(=O)[C@@H](C)[C@H](O)[C@@H](C)CC(C)=CC(=O)O', 'y'),
  ('COC(=O)[C@H](CCCN=C(N)N)NS(=O)(=O)c1ccc(C)cc1', 'n'),
  ('COC(=O)C1=C(C)NC(C)=C(C(=O)OCCN2CCN(C(c3ccccc3)c3ccccc3)CC2)C1c1cccc([N+](=O)[O-])c1 (centres undefined)', 'n');

---

# ASSAY OVERVIEW: Quantitative highthroughput screen to assess conditional lethalithy of P12 Ichikawa cells grown in Human Plasma-Like Medium with dialyzed fetal bovine serum (HPLM+ds) (AID 1963879); further: nearly all actives have a fitted effect of over 35% in size
# REPORTED CONDITIONS: ATP luminescence, 48 h; viability; series mostly up to 45.8 µM
Results filed as inconclusive are left out. Activity calls are given as the source filed them. Calls follow the shape of the dose curve; as a rule, active = well fitted cell-killing curve with a large enough effect; inconclusive = small, poorly fitted or top-dose-only effect; inactive = flat fitted curve, though single readings scatter.
Classes used: True = active, False = inactive

INSERT INTO measurements (molecule, classification) VALUES
  ('CC(C)NCC(O)c1ccc(NS(C)(=O)=O)cc1 (centres undefined)', 'False'),
  ('CC(=O)O[C@H]1C[C@@H]2CC[C@H]3[C@H]4C[C@H]([N+]5(C)CCCCC5)[C@@H](OC(C)=O)[C@@]4(C)CC[C@@H]3[C@@]2(C)C[C@H]1[N+]1(C)CCCCC1', 'False'),
  ('CN[C@H](CC(C)C)C(=O)N[C@H]1C(=O)N[C@@H](CC(N)=O)C(=O)N[C@@H]2C(=O)N[C@H]3C(=O)N[C@H](C(=O)N[C@H](C(=O)O)c4cc(O)cc(O)c4-c4cc3ccc4O)[C@H](O)c3ccc(c(Cl)c3)Oc3cc2cc(c3O[C@@H]2O[C@H](CO)[C@@H](O)[C@H](O)[C@@H]2O[C@H]2C[C@](C)(N)[C@H](O)[C@H](C)O2)Oc2ccc(cc2Cl)[C@H]1O', 'False'),
  ('Cc1ccccc1C(C(=O)NC1CCCCC1)N(C(=O)CNc1ccc(C#N)cc1)c1cccc(F)c1 (centres undefined)', 'False'),
  ('O=Nc1c(-c2c(O)[nH]c3cc(Br)ccc23)[nH]c2ccccc12', 'True'),
  ('COc1cc2c(cc1OC)CC(=O)N(CCCN(C)C[C@H]1Cc3cc(OC)c(OC)cc31)CC2', 'False'),
  ('Cc1ccn(-c2ccc(-c3ncco3)cc2)c(=O)c1-c1ccc2nc(N)ncc2c1', 'False'),
  ('CC(C)(C)c1cnc(CSc2cnc(NC(=O)C3CCNCC3)s2)o1', 'True'),
  ('c1ccc([C@H]2CN3CCSC3=N2)cc1', 'False');

---

# ASSAY OVERVIEW: Viability qHTS for spleen associated tyrosine kinase inhibitor (SYKi) drug resistant MV4-11 cells (AID 1963824); further: nearly all actives have a fitted effect of over 35% in size
# REPORTED CONDITIONS: SYKi-resistant MV4-11 viability, CellTiter-Glo, 72 h; series mostly up to 45 µM
Inconclusive results are not listed. Calls of active or inactive are those of the source. Calls follow the shape of the dose curve; as a rule, active = well fitted cell-killing curve with a large enough effect; inconclusive = small, poorly fitted or top-dose-only effect, or effect the other way; inactive = no such curve, though single readings can be large or run the other way.
Classes used: active, inactive

INSERT INTO measurements (compound, classification) VALUES
  ('CC[C@@H]([C@H](C)O)n1ncn(-c2ccc(N3CCN(c4ccc(OC[C@@H]5CO[C@@](Cn6cncn6)(c6ccc(F)cc6F)C5)cc4)CC3)cc2)c1=O', 'active'),
  ('COc1ccc(N(C)c2nc(C)nc3ccccc23)cc1', 'active'),
  ('COc1ccccc1N1CCN(CC(O)COc2cccc3ccccc23)CC1 (stereo not drawn)', 'inactive'),
  ('C/C=C(\C)C(=O)OC1C[C@@]2(COC(C)=O)O[C@H]2/C=C\[C@@]2(C)O[C@@H]2[C@H]2OC(=O)C(COC(C)=O)=C12 (stereo partly drawn)', 'active'),
  ('COc1cc2c(cc1O)CC[C@@H]1[C@@H]2CC[C@]2(C)[C@@H](O)CC[C@@H]12', 'active'),
  ('COc1cccc(N2CCN(C3=Nc4c(F)cccc4[C@H](CC(=O)O)N3c3cc(C(F)(F)F)ccc3OC)CC2)c1', 'active'),
  ('[N-]=[N+]=N[C@]1(CO)O[C@@H](n2ccc(=O)[nH]c2=O)[C@@H](O)[C@@H]1O', 'inactive'),
  ('C[C@@H](Oc1cc(-n2cnc3ccc(OC4CCN(C)CC4)cc32)sc1C(N)=O)c1ccccc1Cl', 'active');

---

# ASSAY OVERVIEW: Quantitative highthroughput screen to assess conditional lethalithy of SEM cells grown in Human Plasma-Like Medium with dialyzed fetal bovine serum (HPLM+ds) (AID 1963882); further: nearly all actives have a fitted effect of over 35% in size
# REPORTED CONDITIONS: SEM B-ALL cells in HPLM+ds, CellTiter-Glo viability, 48 h; series mostly up to 45.8 µM
Results filed as inconclusive are left out. Active and inactive are the calls of the source. The call rests on the fitted dose curve; in most records, active means well fitted cell-killing curve with a large enough effect; inconclusive means small, poorly fitted or top-dose-only effect, or effect the other way; inactive means no such curve, though single readings can be large or run the other way.
Classes used: yes = active, no = inactive

INSERT INTO results (molecule, classification) VALUES
  ('C[C@@H](NCCCc1cccc(C(F)(F)F)c1)c1cccc2ccccc12', 'no'),
  ('CC[C@@]1([C@@H]2O[C@@H]([C@H]3O[C@@](O)(CO)[C@H](C)C[C@H]3C)C[C@H]2C)CC[C@H]([C@]2(C)CC[C@]3(C[C@H](O)[C@@H](C)[C@@H]([C@@H](C)[C@@H](OC)[C@H](C)C(=O)O)O3)O2)O1', 'yes'),
  ('O=C(NCc1ccncc1)C12C[C@H]3C[C@@H](C1)CC(c1ccc(Cl)cc1)(C3)C2', 'yes'),
  ('NCC(=O)Nc1ccc(-n2nc(C(F)(F)F)cc2-c2ccc3c(ccc4ccccc43)c2)cc1', 'no'),
  ('NC(=O)Nc1sc(-c2ccc(F)cc2)cc1C(N)=O', 'yes'),
  ('CC(C)C[C@H](NC(=O)[C@@H](NC(=O)c1cccc(-c2ccccc2)n1)[C@@H](C)O)B(O)O', 'yes'),
  ('CN1CCN(c2ccc(C(=O)Nc3n[nH]c4ccc(Cc5cc(F)cc(F)c5)cc34)c(NC3CCOCC3)c2)CC1', 'yes'),
  ('Cc1ccccc1C(C(=O)NC1CCCC1)N(C(=O)Cn1cnc2ccccc21)c1cccc(F)c1 (centres undefined)', 'no'),
  ('COC(=O)C1=C(C)NC(C)=C(C(=O)OC(C)C)C1c1cccc2nonc12 (centres undefined)', 'no'),
  ('Cn1c(CNc2ccc(C(=N)N)cc2)nc2cc(C(=O)N(CCC(=O)O)c3ccccn3)ccc21', 'no'),
  ('Oc1cccc(-c2nc(N3CCOCC3)c3oc4ncccc4c3n2)c1', 'yes'),
  ('CC(N[C@H]1CCCC[C@H]1NC(=O)c1ccc(Cl)cc1)c1cccc2ccccc12 (some centres undefined)', 'no'),
  ('O=C(Nc1cc2cc[nH]c2cn1)c1ccccc1', 'yes'),
  ('CCN(CC)CCOc1ccc(Nc2ncc3cc(-c4c(Cl)cccc4Cl)c(=O)n(C)c3n2)cc1', 'yes'),
  ('Cn1cc(CNCC2CCN(c3ncc(C(=O)NO)cn3)CC2)c2ccccc21', 'yes'),
  ('CCCCNc1cc(C(=O)O)cc(S(N)(=O)=O)c1Oc1ccccc1', 'no'),
  ('O=C1Nc2ccc(I)cc2C1=Cc1cc(Br)c(O)c(Br)c1', 'no'),
  ('Oc1ccc(-c2ccc(-c3cc(Nc4cccc(CNC5CC5)c4)n[nH]3)cc2)c(O)c1', 'yes'),
  ('CNC(=O)c1c(-c2ccc(F)cc2)oc2cc(N(CCO)S(C)(=O)=O)c(C3CC3)cc12', 'yes');

---

# ASSAY OVERVIEW: Viability qHTS for spleen associated tyrosine kinase inhibitor (SYKi) naive MV4-11 cells (AID 1963823); further: nearly all actives have a fitted effect of over 40% in size
# REPORTED CONDITIONS: MV4-11 AML viability, CellTiter-Glo luminescence, 72 h; series mostly up to 45 µM
Results filed as inconclusive are left out. Activity calls are given as the source filed them. Calls follow the shape of the dose curve; as a rule, active = well fitted cell-killing curve with a large enough effect; inconclusive = small, poorly fitted or top-dose-only effect, or effect the other way; inactive = no such curve, though single readings can be large or run the other way.
Classes used: active, inactive

INSERT INTO measurements (compound, classification) VALUES
  ('O[C@@H](CNC[C@H](O)[C@H]1CCc2cc(F)ccc2O1)[C@@H]1CCc2cc(F)ccc2O1', 'active'),
  ('CC1CCC2(C(=O)O)CCC3(C)C(=CCC4C5(C)CCC(O)C(C)(CO)C5CCC43C)C2C1(C)O (centres undefined)', 'inactive'),
  ('c1ccc2c(-c3cnn4cc(-c5ccc(OCCN6CCOCC6)cc5)cnc34)ccnc2c1', 'active'),
  ('CCN(CC)C(=O)N1CCN(C)CC1', 'inactive'),
  ('CC1(C(=O)Nc2ccc(F)nc2)CCCN1c1nc(Nc2cc(C3CC3)[nH]n2)c2cccn2n1 (centres undefined)', 'active'),
  ('CC(=O)c1ccc2c(c1)N(CCCN1CCC(CCO)CC1)c1ccccc1S2', 'active'),
  ('O=C(Nc1ccc(S(=O)(=O)Nc2ccccc2Cl)c(Cl)c1)c1ccccn1', 'inactive'),
  ('COc1ccc2nc3cc(Cl)ccc3c(Nc3cc(CN4CCCC4)c(O)c(CN4CCCC4)c3)c2n1', 'active'),
  ('COc1cc(/C=C/C(=O)O)ccc1O[C@@H]1O[C@H](CO)[C@@H](O)[C@H](O)[C@H]1O[C@@H]1OC[C@](O)(CO)[C@H]1O', 'inactive');
